Taken from patent US20230416256A1.

Property: pIC50; scope: individual molecules
Molecular target: recombinant human NF-kappaB-inducing kinase (NIK/MAP3K14) (Homo sapiens)
Test: Inhibition of auto-phosphorylation of recombinant human NIK/MAP3K14 activity (AlphaScreen)
Details: GST-tagged NIK/MAP3K14 1 nM, 5 μM ATP, 2 h at 25° C.; average of values obtained
pIC50: −log10 of the molar value.
Measured attribute: pIC50

Molecule | Result
O[C@@]1(c2cccc(-c3csc(-c4c[nH]c5nccc(F)c45)n3)c2)CCn2ccnc21 [Example 29] | ≥ 7.00
CN1CC[C@@](O)(c2cccc(-c3ncc(-c4c[nH]c5ncccc45)s3)c2)C1=O [Example 9] | 6.30 to 7.00
O[C@@]1(c2cccc(-c3csc(-c4c[nH]c5nccnc45)n3)c2)COc2cccnc21 [Example 17] | ≥ 7.00
O[C@@]1(c2cccc(-c3csc(-c4c[nH]c5ncc(F)cc45)n3)c2)CCn2ccnc21 [Example 24] | ≥ 7.00
C[C@@](O)(c1cccc(-c2csc(-c3c[nH]c4ncccc34)n2)c1)c1ncc[nH]1 (single isomer, unassigned) [Example 80] | < 6.30
O[C@@]1(c2cccc(-c3csc(-c4n[nH]c5ncccc45)n3)c2)CCn2ccnc21 [Example 75] | 6.30 to 7.00
CN1CC[C@](O)(c2cccc(-c3cnc(-c4c[nH]c5ncccc45)s3)c2)C1=O (single isomer, unassigned) [Example 4] | < 6.30
O[C@@]1(c2cccc(-c3nc(-c4c[nH]c5nccnc45)cs3)c2)CCn2ccnc21 [Example 11] | ≥ 7.00
CC1(C)Cc2cccnc2[C@]1(O)c1cccc(-c2csc(-c3c[nH]c4ncccc34)n2)c1 (single isomer, unassigned) [Example 36] | ≥ 7.00

* * *

Biological target: recombinant human NF-kappaB-inducing kinase (NIK/MAP3K14) (Homo sapiens, UniProt Q99558)
Sequence (Q99558 whole entry): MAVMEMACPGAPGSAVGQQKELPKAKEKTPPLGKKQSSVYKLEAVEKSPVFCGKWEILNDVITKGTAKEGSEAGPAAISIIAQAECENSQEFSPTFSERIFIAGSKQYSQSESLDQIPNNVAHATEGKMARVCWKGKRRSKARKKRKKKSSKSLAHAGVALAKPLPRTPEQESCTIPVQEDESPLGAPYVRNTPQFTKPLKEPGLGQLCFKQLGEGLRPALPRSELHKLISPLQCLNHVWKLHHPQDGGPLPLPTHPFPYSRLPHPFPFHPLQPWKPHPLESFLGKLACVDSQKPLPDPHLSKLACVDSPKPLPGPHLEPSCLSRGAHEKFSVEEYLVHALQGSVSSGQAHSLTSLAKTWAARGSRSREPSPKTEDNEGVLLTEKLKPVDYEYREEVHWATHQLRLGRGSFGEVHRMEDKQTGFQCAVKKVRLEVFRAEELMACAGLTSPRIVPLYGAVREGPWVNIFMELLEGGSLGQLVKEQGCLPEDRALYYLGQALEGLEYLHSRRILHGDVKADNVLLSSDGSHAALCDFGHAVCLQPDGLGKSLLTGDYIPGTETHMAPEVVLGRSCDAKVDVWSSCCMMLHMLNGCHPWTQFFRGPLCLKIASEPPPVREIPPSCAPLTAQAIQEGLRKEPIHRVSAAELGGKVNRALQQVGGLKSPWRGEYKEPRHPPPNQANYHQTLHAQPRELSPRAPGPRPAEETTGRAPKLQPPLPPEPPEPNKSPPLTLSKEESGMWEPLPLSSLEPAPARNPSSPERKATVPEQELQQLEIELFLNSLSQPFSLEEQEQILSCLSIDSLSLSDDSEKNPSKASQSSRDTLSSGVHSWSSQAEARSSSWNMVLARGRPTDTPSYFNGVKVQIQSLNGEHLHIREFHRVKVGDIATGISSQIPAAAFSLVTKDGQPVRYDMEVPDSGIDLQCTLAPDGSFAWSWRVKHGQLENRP
Assay: Inhibition of auto-phosphorylation of recombinant human NIK/MAP3K14 activity (AlphaScreen)
Conditions: GST-tagged NIK/MAP3K14 1 nM, 5 μM ATP, 2 h at 25° C.; average of values obtained
Experimental: Inhibition of Auto-Phosphorylation of Recombinant Human NF-kappaB-Inducing Kinase (NIK/MAP3K14) Activity (AlphaScreen®) NIK/MAP3K14 auto-phosphorylation activity was measured using the AlphaScreen® (αscreen) format (Perkin Elmer). […] Protein A Acceptor and Glutathione-Donor beads were added before reading using an EnVision Multilabel Plate Reader (Perkin Elmer). […] IC50's were determined by fitting a sigmoidal curve to % inhibition of control versus Log10 compound concentration.
pIC50: −log10 of the molar value.

Compound | pIC50
CN1CC[C@@](O)(c2cccc(-n3cnc(-c4c[nH]c5ncccc45)c3)c2)C1=O (single isomer, unassigned) | < 6.30
Cc1cnc2[nH]c(C)c(-c3nc(-c4cccc([C@]5(O)CCN(C)C5=O)c4)cs3)c2c1 | < 6.30
C[C@@]1(O)C[C@@](O)(c2cccc(-c3csc(-c4c[nH]c5ncccc45)n3)c2)c2ncccc21 | < 6.30
O[C@@]1(c2cccc(-c3csc(-c4c[nH]c5nccnc45)n3)c2)C=Cn2ccnc21 | ≥ 7.00
C[C@]1(O)C[C@@](O)(c2cccc(-c3csc(-c4c[nH]c5ncccc45)n3)c2)c2ncccc21 (single isomer, unassigned) | 6.30 to 7.00
CN1CC[C@@](O)(c2cccc(-c3csc(-n4ccc5ncccc54)n3)c2)C1=O (single isomer, unassigned) | 6.30 to 7.00
[2H]c1cnc2[nH]cc(-c3nc(-c4cccc([C@@]5(O)CCn6ccnc65)c4)cs3)c2n1 | < 6.30
CN1CC[C@@](O)(c2cccc(-c3ncc(-c4c[nH]c5ncccc45)n3C)c2)C1=O | 6.30 to 7.00
CN1CCC[C@@](O)(c2cccc(-c3csc(-c4c[nH]c5nccnc45)n3)c2)C1=O | ≥ 7.00
O[C@]1(c2cccc(-c3nc(-c4c[nH]c5nccnc45)cs3)c2)CCn2ccnc21 | 6.30 to 7.00
COc1cnc2[nH]cc(-c3nc(-c4cccc([C@]5(O)CCN(C)C5=O)c4)cs3)c2c1 | ≥ 7.00
Cc1cnc2[nH]cc(-c3nc(-c4cccc([C@]5(O)CCn6ccnc65)c4)cs3)c2n1 | ≥ 7.00
O[C@@]1(c2cccc(-c3csc(-c4c[nH]c5ncncc45)n3)c2)CCc2cccnc21 (single isomer, unassigned) | ≥ 7.00
